Test system: MS2 coat protein
Method Summary: apparent Kd, MS2 coat protein; higher = weaker binding; RNA-MaP array; theophylline 2 mM where present
Assay Context: designed as: OFF switch for theophylline; no ligand
# binarize apparent Kd: threshold 60 nM inclusive, high side Met, low side Not met

// below: answered sequences
INSERT INTO measurements (biopolymer_sequence, group) VALUES
  ('UCGUGGUCCGCAAGGACCGGGAGUUGCGAUACCAGCACGGUAACGUGCCCUUGGCAGCGCACAUGAGGAUCACCCAUGUGGUGUU', 'Met'),
  ('GAUGAUAUUGCAGAUACCAGACACAUGAGGAUCACCCAUGUCUCUGAGAUGAAGGAUCGUGUCCCUUGGCAGCUGCGAUAUCAUC', 'Not met'),
  ('AUAACUGUCAAGGAAGGUGAUCCAGCAGAUACCAGCUAGGAAACUAGCCCUUGGCAGCUGCAACAUGAGGAUCACCCAUGUAAUA', 'Met'),
  ('AGACAUGUAAGAUAAAUGACUUAUACAGAUACCAGACUAGUCAAUGUCCCUUGGCAGCUGCAUAACAUGAGGAUCACCCAUGUAA', 'Not met'),
  ('UUUGCACAUGAGGAUCACCCAUGUACAGAUACCAGCCUCAUCUACGGCCCUUGGCAGCUGAGACAAUGGUGACGUGAUGGGCUUU', 'Not met');

Exercise: # bool: apparent Kd of "CUAUAAGUAACUGAUACCAGUGUACUGACAUGAGGAUCACCCAUGUUGGGUUUUGUUGUACACCCUUGGCAGCAGAAUCUUGUAG" >= 60 nM
Key: Met

Exercise: # bool: apparent Kd of "AAACGUUGCUGCGAUACCAGACAUGAGGAUCACCCAUGUACCAAGGUACGAAUAUAACAUGUCCCUUGGCAGCGCAGCAACGAAA" >= 60 nM
Key: Not met

----------
System: MS2 coat protein
Method Summary: apparent Kd, MS2 coat protein; higher = weaker binding; RNA-MaP array
Assay Context: ligand present: flavin mononucleotide; designed as: ON switch for flavin mononucleotide
Below, each of the sequences is paired with its reported apparent Kd value.
Lab note: write values as number then unit, every time.

Would you please look over these solved cases?
INSERT INTO results (biopolymer_sequence, meas_value) VALUES
  ('CUACGGACGGAAGGAUAUAUACGGGUGCCCAGUAUAGAAGGUCCAUACAUGAGGAUCACCCAUGUCAUUAAACCUACGGAGGAG', '80.6 nM'),
  ('CUGUUACAUGAGGAUCACCCAUGUUUUUGGUUAAGAGGAUAUGGCACAUGGUUAAACGUUCCAGAAGGCUUUGCAC', '8.94 nM'),
  ('GAAAAGGACAAAGGAUAUGGGUAGGCAAUCAAUCCAGAAGGUAGACCAGGCAACCUAAACAAACAUGAGGAUCACCCAUGUUAG', '14.3 nM');

Attention now turns to another entry.
Exercise: Enter measured apparent Kd, system MS2 coat protein, for the sequence shown: "GUUUCACAUGAGGAUCACCCAUGUCAAUGCACUGUAGGAUAUGGUUGGUUUCCGCAGCGGCCAGAAGGACAAAUAU"
Key: 33.5 nM

----------
System: MS2 coat protein
Method Summary: apparent Kd, MS2 coat protein; higher = weaker binding; RNA-MaP array
Assay Context: ligand present: flavin mononucleotide; designed as: OFF switch for flavin mononucleotide
Quantity Name: apparent Kd (nM)
Form entry: value (nM) — number only.

Would you please look over these solved cases?
INSERT INTO measurements (biopolymer_sequence, quantity_name, meas_value) VALUES
  ('UCGAGUACGGUGAGGAUAUCAUGAGGAUUACUACAAGAGAAGGCACAUGAGGAUCACCCAUGUGGCGACCAUUC', 'apparent Kd', 6.32),
  ('UGAUGAUGACAGGAUAUUAGCGUAAUGAAACUUUAAGAAGGGUCGACAUGAGGAUCACCCAUGUAUGAUCUCGA', 'apparent Kd', 5.38);

Exercise: For the sequence "GCCCGGACACAAGGAUAUCAGACCAAUACAUGAGGAUCACCCAUGUCGGGCCUCUAAGUACGACCUGAGAAGGUGUCUCCCAGU" , report apparent Kd.
Key: 345

Exercise: For the sequence "AAACCCAAAGUUAGGAUAUGCAUUGCCGGCCCUGUGCAGAAGGAACAUGAGGAUCACCCAUGUACUGGUGUUCG" , report apparent Kd.
Key: 103

Exercise: For the sequence "CUACGCAUAGGAUAUGCCUACUGGGACAUGAGGAUCACCCAUGUGUUAUUAUCAGCUCCGGCAGAAGGAUGGUACU" , report apparent Kd.
Key: 11.8

Exercise: For the sequence "AGAAGACAUGAGGAUCACCCAUGUGAGGAUAUUACACUAGAAAACAGCCGCGUCUCGGUAAGAAGGCACUAUGG" , report apparent Kd.
Key: 36.6

Exercise: For the sequence "ACCUGGUGUAAGAAGGAGCAGAUAUAACGGUCGCUAGGAUAUUACCCUUCAAAAUGGGAUCUCACAUGAGGAUCACCCAUGUUA" , report apparent Kd.
Key: 218

Exercise: For the sequence "GUACUGUACAAGAAGGUUGAUUUGCAUCAAGAUCCGAUUUACAUGAGGAUCACCCAUGUUUUAUCAAAGGAUAUUGGUACAACG" , report apparent Kd.
Key: 66.8

----------
Below, each of the sequences is paired with its reported apparent Kd value.
Test system: MS2 coat protein
Method Summary: apparent Kd, MS2 coat protein; higher = weaker binding; RNA-MaP array
Assay Context: designed as: OFF switch for tryptophan; no ligand
Form entry: value (nM) — number only.

INSERT INTO results (biopolymer_sequence, quantity_name, meas_value) VALUES
  ('CCCAAUUUCCGAGAUAUGGGUCCAACUAAACGAGGACCGGUACGGCCGCCACUCGACUACAAACAUGAGGAUCACCCAUGUAAAG', 'apparent Kd', 17),
  ('UAAUAGAUUACGGCCGCCACUGAAGUGGACUUUAUGAGCAGGAUUCACAUGAGGAUCACCCAUGUCAGGACCGGGUACGUCCAUA', 'apparent Kd', 39.2),
  ('UAUAAACAGCCUGGUUACUCGUCGCGCUUGCGAGGACCGGUACGGCCGCCACUCGACCCAUCACAUGAGGAUCACCCAUGUCCCA', 'apparent Kd', 31.7);

Attention now turns to another entry.
Exercise: For the sequence "GCGAACGGACCGUUGCCUUCCUGUGUGCGGCGAGGACCGGUACGGCCGCCACUCGACUGCGUACAUGAGGAUCACCCAUGUUAGA" , report apparent Kd.
Key: 26.5

----------
Below, each of the sequences is paired with its reported apparent Kd value.
Tested on: MS2 coat protein
Method Summary: apparent Kd, MS2 coat protein; higher = weaker binding; RNA-MaP array; theophylline 2 mM where present
Assay Context: designed as: OFF switch for theophylline; no ligand
Lab note: write values as number then unit, every time.

INSERT INTO measurements (biopolymer_sequence, meas_value) VALUES
  ('AUAAGUAAUGUUUCGUGUAUUAUUACAGAUACCAGACUAUCCUAUGUCCCUUGGCAGCUGGAUUACAUGAGGAUCACCCAUGUUG', '16.4 nM');

Exercise: For the sequence "ACCUCACUCUCUGAUACCAGCUAAUAACAUGAGGAUCACCCAUGUCAGACUUGUAUUGAUAGCCCUUGGCAGCAGAGGUAACUGC" , report apparent Kd.
Key: 9.39 nM

Exercise: For the sequence "UAGGUGAUCUUCAACGGAAAACGUUGUGAUACCAGCCAACAAUACGGCCCUUGGCAGCACAUGAGGAUCACCCAUGUGUACACCG" , report apparent Kd.
Key: 29.4 nM

Exercise: For the sequence "GAGGUCCUGAGAGAUACCAGUGAGGCCACAUGAGGAUCACCCAUGUCCCUCACUCCGGCCCACCCUUGGCAGCUCGGAAGGUAAA" , report apparent Kd.
Key: 18.1 nM

Exercise: For the sequence "GAUGAACUAUUUGAUACCAGACUACAUGAGGAUCACCCAUGUGUGUUAAUUUUUCAGUCAGUCCCUUGGCAGCAAAUAGUUUAUC" , report apparent Kd.
Key: 61.2 nM

Exercise: For the sequence "AAAUAAAUAACUGAUACCAGUCGGACAACAUGAGGAUCACCCAUGUUCACCCAUGUUGAGGACCCUUGGCAGCAGAAAUAUAAAA" , report apparent Kd.
Key: 92.3 nM

Exercise: For the sequence "ACGAUGCGACAUGAGGAUCACCCAUGUGAUACCAGCCUGGAAACAGGCCCUUGGCAGCACAAAUACUCCAGAAACGCAUCGAAUA" , report apparent Kd.
Key: 267 nM

----------
System: MS2 coat protein
Method Summary: apparent Kd, MS2 coat protein; higher = weaker binding; RNA-MaP array; FMN 200 µM where present
Assay Context: ligand present: flavin mononucleotide; designed as: OFF switch for flavin mononucleotide
# binarize apparent Kd: threshold 40 nM inclusive, high side met, low side not met

// below: answered sequences
INSERT INTO assay_data (biopolymer_sequence, group) VALUES
  ('GAUUAACAUGAGGAUCACCCAUGUGAGGAUAUGGAAUGGCACAUUGUUUGAUUCCCGUCUAGAAGGCACAUCUU', 'met'),
  ('GUAGAGUAAGGAUAUACUGAAUAGGAUAGAAUGGUUAGAAAGUAGAAGGUACAUGAGGAUCACCCAUGUAAUGU', 'not met'),
  ('ACAUGAGGAUCACCCAUGUUUACAUGGAUUAUUAAUCUUGGAUAGGAUAUGUUAGUUAAGUAUUUACAGAAGGAUCAAUUCCUU', 'not met'),
  ('CCGGCUGCUGUGAGGAUAUGCCUGUGCGCCCGCGGGCAGAAGGCACAUGAGGAUCACCCAUGUCCUGCGGUCCC', 'met'),
  ('UUGUAGUACGUAGGAUAUCAUUGAGGGUCACCCUGAGAAGGACGUGAGGACAUGAGGAUCACCCAUGUGGAUCACCCAUGUCAU', 'met'),
  ('GAGCGAAAGCUCAAUGUCGAUAGCAGAAGGACAUGAAAACAUGAAAACACAUGAGGAUCACCCAUGUAGGAUAUGCUAUCGACU', 'met'),
  ('UAGCGGUAGGGAGGAUAUGCGAAAGGAAGGCCCGCAGAAGGCCUUACAUGAGGAUCACCCAUGUAGGAUGCCUGGGUGGUGCCC', 'not met'),
  ('CCGUUACAUGAGGAUCACCCAUGUGAGGAUAUCGAUGUGACUAGCAGCGUGCGGGACUCGAGAAGGCACUUGGC', 'met'),
  ('UUAUUAUAUGUAGGAUAUGCGUAUUAUUGUUAUGCAGAAGGACAUGAGGAUCACCCAUGUAUAUUAUUGUUGUAUAUUAUAUAU', 'met'),
  ('GUCAGCUCGUGAGGAUAUACAUCACUGCUUCGGCAGUGUAUUAAAUCCACAUGAGGAUCACCCAUGUAGAAGGCACGAGCUGAU', 'not met');

Exercise: # bool: apparent Kd of "CCUGUUUGAUUCCUCUUAUACAUGAGGAUCACCCAUGUUAUCGAGGAUAUGCAUUAGAGUGUUUAGCAGAAGGCGAUGUAAUUG" >= 40 nM
Key: not met

Exercise: # bool: apparent Kd of "GCCUUAUCUGUCAGGAUAUACAAUUUUUUUUUUUUGUAGAAGGGACAUGAGGAUCACCCAUGUACAUUACAUUG" >= 40 nM
Key: met

Taken from the EternaBench riboswitch data.
